Ref: paper PMC10931833

The molecules listed here are annotated with their Distorted Beta Sheet.
- targetOrSystem: BSA (Bos taurus, UniProt P02769)
- Construct: purchased Millipore Sigma-Aldrich
- Sequence (P02769 25-607): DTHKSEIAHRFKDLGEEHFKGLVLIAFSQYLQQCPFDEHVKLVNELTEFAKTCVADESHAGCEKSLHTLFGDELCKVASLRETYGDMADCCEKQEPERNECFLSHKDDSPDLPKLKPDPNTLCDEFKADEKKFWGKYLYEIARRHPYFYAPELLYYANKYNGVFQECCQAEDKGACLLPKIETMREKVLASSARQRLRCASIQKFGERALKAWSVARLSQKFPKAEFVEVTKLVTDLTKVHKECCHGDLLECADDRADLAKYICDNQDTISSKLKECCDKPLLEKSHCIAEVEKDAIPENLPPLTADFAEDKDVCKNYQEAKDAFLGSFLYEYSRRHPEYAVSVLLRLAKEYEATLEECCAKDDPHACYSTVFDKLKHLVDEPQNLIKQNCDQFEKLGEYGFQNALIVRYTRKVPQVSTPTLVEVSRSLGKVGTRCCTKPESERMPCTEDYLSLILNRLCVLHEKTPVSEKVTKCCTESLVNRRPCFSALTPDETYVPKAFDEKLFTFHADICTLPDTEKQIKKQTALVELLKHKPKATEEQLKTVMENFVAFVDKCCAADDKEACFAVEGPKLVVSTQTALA
- protocolNotes: Far-UV CD secondary structure of BSA (CONTIN-LL deconvolution)
- Assay type: physicochemical, bovine
- Design: unit not given here
- testContext: 1.0 mg/mL BSA, 0.1 mM component, 25 °C
// return just the number, without any unit appended

# molecule, Distorted Beta Sheet
measured = [
    ("CCn1cc[n+](C)c1.O=S(=O)([O-])C(F)(F)C(F)(F)C(F)(F)C(F)(F)F", 0.029),
    ("OC[C@H]1O[C@@](CO)(O[C@H]2O[C@H](CO)[C@@H](O)[C@H](O)[C@H]2O)[C@@H](O)[C@@H]1O", 0.026),
    ("C[N+](C)(C)CCO.C[N+](C)(C)CCO.O=P([O-])(O)O.O=P([O-])(O)O [[N1112(OH)][H2PO4]]", 0.031),
    ("CCCCn1cc[n+](C)c1.O=S(=O)([O-])C(F)(F)F [[C4C1Im][CF3SO3]]", 0.028),
]

API: the following record is the query input.
Form entry - test system: BSA (Bos taurus, UniProt P02769); read-out: Distorted Beta Sheet; molecule: C[N+](C)(C)CCO.O=S(=O)([O-])C(F)(F)C(F)(F)C(F)(F)C(F)(F)F [[N1112(OH)][C4F9SO3]]
0.025

###

- targetOrSystem: BSA (Bos taurus)
- Construct: purchased Millipore Sigma-Aldrich
- protocolNotes: DSC thermal unfolding of BSA in water and aqueous solutions of ABS phase-forming components
- Format: physicochemical, bovine
- testContext: 1.0 mg/mL BSA, 0.1 mM component
- Experimental: Differential scanning calorimetry (DSC) measurements were performed with Nano DSC equipment, as detailed in Section 3, and used to determine the melting temperature (T m ) and enthalpy ( Δ H) of protein unfolding. […] Due to the volume and concentration requirements of the DSC technique, and the constraints in available quantities of IFN- α 2b the DSC experiments on the ABS phase-forming components’ effect on the structural properties of proteins were attained only for BSA. […]
Labelling field: enter t if recorded ΔHvH is less than 500 kJ/mol. Enter f if it equals or exceeds that cut-off.

# compound, targetOrSystem, class
measured = [
    ("C[N+](C)(C)CCO.C[N+](C)(C)CCO.O=P([O-])(O)O.O=P([O-])(O)O [[N1112(OH)][H2PO4]]", "BSA (Bos taurus)", "t"),
    ("OC[C@H]1O[C@@](CO)(O[C@H]2O[C@H](CO)[C@@H](O)[C@H](O)[C@H]2O)[C@@H](O)[C@@H]1O [Sucrose, sucrose]", "BSA (Bos taurus)", "f"),
    ("CCCCn1cc[n+](C)c1.O=S(=O)([O-])C(F)(F)F [[C4C1Im][CF3SO3]]", "BSA (Bos taurus)", "f"),
]

Here's an entry: C[N+](C)(C)CCO.O=S(=O)([O-])C(F)(F)C(F)(F)C(F)(F)C(F)(F)F [[N1112(OH)][C4F9SO3]] . Is its ΔHvH below 500 kJ/mol?
f

###

Recorded Regular Alpha Helix values for a group of molecules are listed next.
- targetOrSystem: BSA (Bos taurus, UniProt P02769)
- Construct: purchased Millipore Sigma-Aldrich
- protocolNotes: Far-UV CD secondary structure of BSA (CONTIN-LL deconvolution)
- Assay type: physicochemical, bovine
- testContext: 1.0 mg/mL BSA, 5 mM component, 25 °C
API doc: respond with a numeric literal and nothing else, no unit.

Previously resolved entries follow.
# molecule, metric, val
measured = [
    ("CCCCn1cc[n+](C)c1.O=S(=O)([O-])C(F)(F)F [[C4C1Im][CF3SO3]]", "Regular Alpha Helix", 0.403),
    ("OC[C@H]1O[C@@](CO)(O[C@H]2O[C@H](CO)[C@@H](O)[C@H](O)[C@H]2O)[C@@H](O)[C@@H]1O", "Regular Alpha Helix", 0.427),
    ("CCn1cc[n+](C)c1.O=S(=O)([O-])C(F)(F)C(F)(F)C(F)(F)C(F)(F)F", "Regular Alpha Helix", 0.406),
    ("C[N+](C)(C)CCO.C[N+](C)(C)CCO.O=P([O-])(O)O.O=P([O-])(O)O [[N1112(OH)][H2PO4]]", "Regular Alpha Helix", 0.377),
]

Pending molecule:
Please report the recorded Regular Alpha Helix for C[N+](C)(C)CCO.O=S(=O)([O-])C(F)(F)C(F)(F)C(F)(F)C(F)(F)F [[N1112(OH)][C4F9SO3]] .
0.423

###

Tm overview
- targetOrSystem: BSA (Bos taurus, UniProt P02769)
- Construct: purchased Millipore Sigma-Aldrich
- protocolNotes: DSC thermal unfolding of BSA in water and aqueous solutions of ABS phase-forming components
- Assay type: physicochemical, bovine
- testContext: 1.0 mg/mL BSA, 10 mM component
Reply with just the number (in °C).

Tm lookup needed for OC[C@H]1O[C@@](CO)(O[C@H]2O[C@H](CO)[C@@H](O)[C@H](O)[C@H]2O)[C@@H](O)[C@@H]1O , thanks.
80.77

Which Tm reading was recorded for the molecule C[N+](C)(C)CCO.O=S(=O)([O-])C(F)(F)C(F)(F)C(F)(F)C(F)(F)F [[N1112(OH)][C4F9SO3]] ?
82.78

###

- targetOrSystem: BSA (Bos taurus, UniProt P02769)
- Construct: purchased Millipore Sigma-Aldrich
- protocolNotes: Far-UV CD secondary structure of BSA (CONTIN-LL deconvolution)
- Assay type: physicochemical, bovine
- testContext: 1.0 mg/mL BSA, 120 mM component, 25 °C
metric: Distorted Alpha Helix
Lab note: record the figure alone, no unit after it.

# molecule, Distorted Alpha Helix
rows = [
    ("CCCCn1cc[n+](C)c1.O=S(=O)([O-])C(F)(F)F [[C4C1Im][CF3SO3]]", 0.212),
    ("C[N+](C)(C)CCO.C[N+](C)(C)CCO.O=P([O-])(O)O.O=P([O-])(O)O [[N1112(OH)][H2PO4]]", 0.207),
    ("OC[C@H]1O[C@@](CO)(O[C@H]2O[C@H](CO)[C@@H](O)[C@H](O)[C@H]2O)[C@@H](O)[C@@H]1O [Sucrose, sucrose]", 0.212),
    ("C[N+](C)(C)CCO.O=S(=O)([O-])C(F)(F)C(F)(F)C(F)(F)C(F)(F)F [[N1112(OH)][C4F9SO3]]", 0.205),
]

Give the measured Distorted Alpha Helix of CCn1cc[n+](C)c1.O=S(=O)([O-])C(F)(F)C(F)(F)C(F)(F)C(F)(F)F .
0.206

###

Listed next: entries and their corresponding Regular Alpha Helix.
- targetOrSystem: BSA (Bos taurus, UniProt P02769)
- Construct: purchased Millipore Sigma-Aldrich
- protocolNotes: Far-UV CD secondary structure of BSA (CONTIN-LL deconvolution)
- Type: physicochemical, bovine
- Parameters: unit not given here
- testContext: 1.0 mg/mL BSA, 200 mM component, 25 °C
Format: numeric value only, no unit, no commentary.

Worked set:
# compound, val
records = [
    ("CCn1cc[n+](C)c1.O=S(=O)([O-])C(F)(F)C(F)(F)C(F)(F)C(F)(F)F", 0.316),
    ("C[N+](C)(C)CCO.O=S(=O)([O-])C(F)(F)C(F)(F)C(F)(F)C(F)(F)F [[N1112(OH)][C4F9SO3]]", 0.406),
    ("C[N+](C)(C)CCO.C[N+](C)(C)CCO.O=P([O-])(O)O.O=P([O-])(O)O [[N1112(OH)][H2PO4]]", 0.386),
    ("OC[C@H]1O[C@@](CO)(O[C@H]2O[C@H](CO)[C@@H](O)[C@H](O)[C@H]2O)[C@@H](O)[C@@H]1O [Sucrose, sucrose]", 0.436),
]

Please look up its Regular Alpha Helix: CCCCn1cc[n+](C)c1.O=S(=O)([O-])C(F)(F)F [[C4C1Im][CF3SO3]]
0.411

###

- targetOrSystem: BSA (Bos taurus, UniProt P02769)
- Construct: purchased Millipore Sigma-Aldrich
- protocolNotes: Far-UV CD secondary structure of BSA (CONTIN-LL deconvolution)
- Assay type: physicochemical, bovine
- testContext: 1.0 mg/mL BSA, 200 mM component, 25 °C
- From the text: Circular dichroism (CD) is widely used to study the secondary structures of proteins, peptides and nucleic acids, because it requires a low concentration sample, is a nondestructive method, allows studying a wide range of variables (temperature, pH, etc.), and provides information on the effect of added ligands on protein folding and interactions. […]
Entries and their measured Distorted Beta Sheet follow.
Format: numeric value only, no unit, no commentary.

# compound, Distorted Beta Sheet
records = [
    ("CCCCn1cc[n+](C)c1.O=S(=O)([O-])C(F)(F)F [[C4C1Im][CF3SO3]]", 0.024),
    ("CCn1cc[n+](C)c1.O=S(=O)([O-])C(F)(F)C(F)(F)C(F)(F)C(F)(F)F", 0.025),
]

Bench note: what Distorted Beta Sheet did C[N+](C)(C)CCO.C[N+](C)(C)CCO.O=P([O-])(O)O.O=P([O-])(O)O [[N1112(OH)][H2PO4]] show?
0.032

// Distorted Beta Sheet lookup, key: C[N+](C)(C)CCO.O=S(=O)([O-])C(F)(F)C(F)(F)C(F)(F)C(F)(F)F [[N1112(OH)][C4F9SO3]]
0.032

Which Distorted Beta Sheet is reported for this compound? OC[C@H]1O[C@@](CO)(O[C@H]2O[C@H](CO)[C@@H](O)[C@H](O)[C@H]2O)[C@@H](O)[C@@H]1O
0.024
